Listed compounds paired with reported Antimicrobial Activity (MIC) Fungi Ap
- Tested on: A. pullulans (Ap)
- Test Details: microbe, parasite or virus in culture
- Format: cell-based, Aurobasidium pollulans
- Condition Description: 48 h
Where a SMILES comes first, the peptide text is derived from it. Bridges are numbered along the chain shown (N, C = ends). The star is where a group is joined. Lauroyl = CCCCCCCCCCCC(=O)*
Test Readout: Antimicrobial Activity (MIC) Fungi Ap (µg/mL)

- Compound: "CC(C)C[C@H](NC(=O)[C@H](CCCCN)NC(=O)[C@@H]1CSSC[C@H](N)C(=O)NCC(=O)N[C@@H](CCCCN)C(=O)N[C@@H](CCCCN)C(=O)N2CCC[C@H]2C(=O)NCC(=O)NCC(=O)N[C@@H](Cc2c[nH]c3ccccc23)C(=O)N[C@@H](CCCCN)C(=O)N1)C(N)=O [cTurg-1] (H-CGKKPGGWKCKL-NH2; disulfide 1-10; N-terminus assumed)"
  Test Readout: "Antimicrobial Activity (MIC) Fungi Ap"
  Unit Annotation: "µg/mL"
  Measurement: 32
- Compound: "CC(C)C[C@H](NC(=O)[C@H](CCCNC(=N)N)NC(=O)[C@@H]1CSSC[C@H](N)C(=O)NCC(=O)N[C@@H](CCCNC(=N)N)C(=O)N[C@@H](CCCNC(=N)N)C(=O)N[C@@H](Cc2c[nH]c3ccccc23)C(=O)N[C@@H](Cc2c[nH]c3ccccc23)C(=O)NCC(=O)N[C@@H](Cc2c[nH]c3ccccc23)C(=O)N[C@@H](CCCNC(=N)N)C(=O)N1)C(N)=O [cTurg-5] (H-CGRRWWGWRCRL-NH2; disulfide 1-10; N-terminus assumed)"
  Test Readout: "Antimicrobial Activity (MIC) Fungi Ap"
  Unit Annotation: "µg/mL"
  Measurement: 32
- Compound: "CC(C)C[C@H](NC(=O)[C@H](CCCCN)NC(=O)[C@@H]1CSSC[C@H](N)C(=O)NCC(=O)N[C@@H](CCCCN)C(=O)N[C@@H](CCCCN)C(=O)N[C@@H](Cc2c[nH]c3ccccc23)C(=O)NCC(=O)N[C@@H](Cc2c[nH]c3ccccc23)C(=O)N[C@@H](Cc2c[nH]c3ccccc23)C(=O)N[C@@H](CCCCN)C(=O)N1)C(N)=O [cTurg-3] (H-CGKKWGWWKCKL-NH2; disulfide 1-10; N-terminus assumed)"
  Test Readout: "Antimicrobial Activity (MIC) Fungi Ap"
  Unit Annotation: "µg/mL"
  Measurement: 32
- Compound: "CC(C)C[C@H](NC(=O)[C@H](CCCCN)NC(=O)[C@@H]1CSSC[C@H](N)C(=O)NCC(=O)N[C@@H](CCCCN)C(=O)N[C@@H](CCCCN)C(=O)N2CCC[C@H]2C(=O)N[C@@H](Cc2c[nH]c3ccccc23)C(=O)N[C@@H](Cc2c[nH]c3ccccc23)C(=O)N[C@@H](Cc2c[nH]c3ccccc23)C(=O)N[C@@H](CCCCN)C(=O)N1)C(N)=O [cTurg-4] (H-CGKKPWWWKCKL-NH2; disulfide 1-10; N-terminus assumed)"
  Test Readout: "Antimicrobial Activity (MIC) Fungi Ap"
  Unit Annotation: "µg/mL"
  Measurement: 32
- Compound: "CCCCCCCCCCCC(=O)N[C@@H](CS)C(=O)NCC(=O)N[C@@H](CCCNC(=N)N)C(=O)N[C@@H](CCCNC(=N)N)C(=O)N[C@@H](Cc1c[nH]c2ccccc12)C(=O)NCC(=O)N[C@@H](Cc1c[nH]c2ccccc12)C(=O)N[C@@H](Cc1c[nH]c2ccccc12)C(=O)N[C@@H](CCCNC(=N)N)C(=O)N[C@@H](CS)C(=O)N[C@@H](CCCNC(=N)N)C(=O)N[C@@H](CC(C)C)C(N)=O [Peptide C12-Turg-6, C12- CGRRWGWWRC RL-NH2] (Lauroyl-CGRRWGWWRCRL-NH2)"
  Test Readout: "Antimicrobial Activity (MIC) Fungi Ap"
  Unit Annotation: "µg/mL"
  Measurement: 128
